# targetOrSystem: Serine/threonine-protein kinase 16 (Homo sapiens, UniProt O75716); further: in the data inactive means no Kd found up to 30 µM
# Sequence (O75716 whole entry): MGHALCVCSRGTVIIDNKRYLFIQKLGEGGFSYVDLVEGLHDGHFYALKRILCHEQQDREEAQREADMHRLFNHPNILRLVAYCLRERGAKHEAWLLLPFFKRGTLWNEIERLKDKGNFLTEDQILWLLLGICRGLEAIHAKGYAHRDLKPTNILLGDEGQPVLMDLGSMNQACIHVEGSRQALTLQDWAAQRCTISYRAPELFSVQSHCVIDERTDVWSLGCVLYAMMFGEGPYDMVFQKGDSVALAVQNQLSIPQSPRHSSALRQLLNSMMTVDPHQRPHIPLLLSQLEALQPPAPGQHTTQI
Active and inactive are the calls of the source.
Assign a class; possible classes are active, inactive

{"compoundString": "COc1cc2ncnc(Nc3ccc(O)cc3)c2cc1OC", "labelValue": "inactive"}
{"compoundString": "N#CCNC(=O)c1ccc(-c2ccnc(Nc3ccc(N4CCOCC4)cc3)n2)cc1", "labelValue": "active"}
{"compoundString": "C[C@@H]1COC(Nc2ccc3ncnc(Nc4ccc(OCc5nccs5)c(Cl)c4)c3c2)=N1", "labelValue": "inactive"}
{"compoundString": "Cc1cc(C(=O)Nc2cc(Oc3ccc4nc(NC(=O)C5CC5)cn4n3)ccc2C)n(C)n1", "labelValue": "inactive"}

// switching to the query compound
Data request: # lookup: test call for O=c1[nH]c([C@@H]2CCCN2)nc2c1oc1ccc(Cl)cc12
Data returned: inactive

* * *

# Kd annotations
# targetOrSystem: Dual specificity mitogen-activated protein kinase kinase 6 (Homo sapiens); further: in the data inactive means no Kd found up to 30 µM
# Sequence (P52564 whole entry): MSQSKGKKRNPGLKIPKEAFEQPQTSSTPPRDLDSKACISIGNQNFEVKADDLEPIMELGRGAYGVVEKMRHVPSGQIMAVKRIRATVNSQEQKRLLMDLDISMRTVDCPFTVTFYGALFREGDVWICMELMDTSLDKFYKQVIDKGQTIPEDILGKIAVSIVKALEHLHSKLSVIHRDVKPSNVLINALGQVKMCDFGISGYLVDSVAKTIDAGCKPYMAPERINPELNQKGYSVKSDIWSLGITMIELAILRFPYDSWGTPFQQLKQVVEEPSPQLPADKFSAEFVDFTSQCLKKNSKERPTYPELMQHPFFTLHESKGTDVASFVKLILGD
Activity calls are given as the source filed them.

Some solved entries appear below for comparison.
{"compoundString": "Cc1cc(Nc2nc(N[C@@H](C)c3ncc(F)cn3)ncc2Cl)n[nH]1", "Kd": "> 30 µM (inactive)"}
{"compoundString": "CCN1CCN(Cc2ccc(Nc3ncc(F)c(-c4cc(F)c5nc(C)n(C(C)C)c5c4)n3)nc2)CC1", "Kd": "> 30 µM (inactive)"}
{"compoundString": "CC1(COc2ccc3c(c2)ncn3-c2ccc3cccc(N4CCC(N)CC4)c3n2)COC1", "Kd": "> 30 µM (inactive)"}
{"compoundString": "NC(=O)c1ccc(N(C(N)=O)c2c(F)cccc2F)nc1-c1ccc(F)cc1F", "Kd": "> 30 µM (inactive)"}
{"compoundString": "NC[C@@](O)(c1ccc(Cl)cc1)c1ccc(-c2cn[nH]c2)cc1", "Kd": "> 30 µM (inactive)"}

response.value for O[C@H]1CC[C@H](Nc2ncc3nc(Nc4c(F)cc(F)cc4F)n([C@H]4CCOC4)c3n2)CC1 (field: Kd) = > 30 µM (inactive)

Kindly note the recorded Kd for CNC(=O)c1ccc(Nc2ncc(C(F)(F)F)c(NCc3nccnc3N(C)S(C)(=O)=O)n2)cc1 , which is > 30 µM (inactive)

Please fill in: Kd reported for O=C(Nc1ccc(OC(F)(F)F)cc1)c1sccc1NCc1ccnc2ccccc12 = > 30 µM (inactive)

* * *

Property: Kd; scope: individual compounds
# targetOrSystem: Dual specificity mitogen-activated protein kinase kinase 3 (Homo sapiens); further: in the data inactive means no Kd found up to 30 µM
# Sequence (P46734 whole entry): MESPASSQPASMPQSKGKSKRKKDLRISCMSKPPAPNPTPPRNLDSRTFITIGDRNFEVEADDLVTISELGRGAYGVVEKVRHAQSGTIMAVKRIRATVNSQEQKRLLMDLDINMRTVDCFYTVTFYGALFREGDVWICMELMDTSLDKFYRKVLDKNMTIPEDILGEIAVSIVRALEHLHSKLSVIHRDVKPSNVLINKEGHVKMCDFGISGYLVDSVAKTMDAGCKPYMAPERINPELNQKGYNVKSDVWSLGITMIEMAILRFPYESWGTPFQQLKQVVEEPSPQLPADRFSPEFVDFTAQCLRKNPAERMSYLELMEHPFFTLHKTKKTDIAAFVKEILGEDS
Calls of active or inactive are those of the source.

{"compoundString": "N#CCNC(=O)c1ccc(-c2ccnc(Nc3ccc(N4CCOCC4)cc3)n2)cc1", "Kd": "> 30 µM (inactive)"}
{"compoundString": "CCN(CCCOc1ccc2c(Nc3cc(CC(=O)Nc4cccc(F)c4)n[nH]3)ncnc2c1)CCOP(=O)(O)O", "Kd": "> 30 µM (inactive)"}
{"compoundString": "CCN1CCN(Cc2ccc(Nc3ncc(F)c(-c4cc(F)c5nc(C)n(C(C)C)c5c4)n3)nc2)CC1", "Kd": "> 30 µM (inactive)"}
{"compoundString": "COc1cccc(Nc2ncnn3ccc(CN4CC[C@@H](N)[C@H](O)C4)c23)c1", "Kd": "> 30 µM (inactive)"}
{"compoundString": "Cn1c(=O)c(F)c(Nc2ccc(I)cc2F)c2c(=O)n(C[C@@H](O)CO)cnc21", "Kd": "> 30 µM (inactive)"}

GET /values?item= Cc1cc(Nc2nc(N[C@@H](C)c3ncc(F)cn3)ncc2Cl)n[nH]1 &system= Dual specificity mitogen-activated protein kinase kinase 3 (Homo sapiens) returns Kd: > 30 µM (inactive)

// compound COc1cc2ncnc(Nc3ccc(O)cc3)c2cc1OC , assay Dual specificity mitogen-activated protein kinase kinase 3 (Homo sapiens), Kd value: > 30 µM (inactive)

Record CCc1cc2c(cc1N1CCC(N3CCOCC3)CC1)C(C)(C)c1[nH]c3cc(C#N)ccc3c1C2=O ; system Dual specificity mitogen-activated protein kinase kinase 3 (Homo sapiens); Kd = > 30 µM (inactive)

* * *

# targetOrSystem: Mitogen-activated protein kinase 1 (Homo sapiens); further: in the data inactive means no Kd found up to 30 µM
# Sequence (P28482 whole entry): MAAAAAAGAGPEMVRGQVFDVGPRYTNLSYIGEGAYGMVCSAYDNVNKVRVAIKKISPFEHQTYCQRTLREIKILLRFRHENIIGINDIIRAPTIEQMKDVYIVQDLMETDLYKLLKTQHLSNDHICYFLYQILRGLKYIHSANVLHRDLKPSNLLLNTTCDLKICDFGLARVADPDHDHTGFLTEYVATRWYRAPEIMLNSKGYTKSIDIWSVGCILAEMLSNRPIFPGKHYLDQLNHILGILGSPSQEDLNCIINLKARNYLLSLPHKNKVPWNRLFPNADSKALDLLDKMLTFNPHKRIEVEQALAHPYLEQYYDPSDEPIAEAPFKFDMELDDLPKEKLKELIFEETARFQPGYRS
The source made the active and inactive calls.
readoutKind: Kd

Some entries whose results are on file:
{"molecule": "C=CC(=O)Nc1cccc(Nc2nc(Nc3ccc(N4CCN(C(C)=O)CC4)cc3OC)ncc2C(F)(F)F)c1 [ROCILETINIB]", "Kd": "> 30 µM (inactive)"}
{"molecule": "N#CCNC(=O)c1ccc(-c2ccnc(Nc3ccc(N4CCOCC4)cc3)n2)cc1 [MOMELOTINIB]", "Kd": "> 30 µM (inactive)"}

Quick note, Kd for COc1cc(Nc2ncc(F)c(Nc3ccc4c(n3)N(COP(=O)(O)O)C(=O)C(C)(C)O4)n2)cc(OC)c1OC [FOSTAMATINIB] landed at > 30 µM (inactive)

Looking up CCN(CCCOc1ccc2c(Nc3cc(CC(=O)Nc4cccc(F)c4)n[nH]3)ncnc2c1)CCOP(=O)(O)O [BARASERTIB] , I found its Kd recorded as > 30 µM (inactive)

// recorded Kd for COc1cc2ncnc3c2cc1OCCCCCN(C)Cc1ccc(Br)cc1N3 [JNJ-26483327] : > 30 µM (inactive)

Consider Cc1cc(-c2cc(OC(=O)c3ccccc3)ccc2Cl)cc2nnc(Nc3ccc(OCCN4CCCC4)cc3)nc12 [TG100-801] . Its measured Kd is > 30 µM (inactive)

CC(C)(O)CC(=O)NCCn1ccc2ncnc(Nc3ccc(Oc4cccc(C(F)(F)F)c4)c(Cl)c3)c21 [TAK-285] yielded Kd of > 30 µM (inactive)

Per the record, CCc1cc2c(cc1N1CCC(N3CCOCC3)CC1)C(C)(C)c1[nH]c3cc(C#N)ccc3c1C2=O [ALECTINIB] has Kd of > 30 µM (inactive)

So, COc1cccc2cc(-c3nc([C@H]4CC[C@H](C(=O)O)CC4)n4ncnc(N)c34)[nH]c12 [OSI-027] ? Its Kd was > 30 µM (inactive)

Looking up Cn1c(=O)c(F)c(Nc2ccc(I)cc2F)c2c(=O)n(C[C@@H](O)CO)cnc21 [TAK-733] , I see its Kd listed as > 30 µM (inactive)

Note to self: Kd recorded for c1cc(OCCN2CCCCC2)cc(-c2n[nH]c3ccc(-c4nc[nH]n4)cc23)c1 [CC-401] was > 30 µM (inactive)

Query NC[C@@](O)(c1ccc(Cl)cc1)c1ccc(-c2cn[nH]c2)cc1 [AT-13148] yields Kd of > 30 µM (inactive)

// sample O=C(NC[C@H](O)CO)c1ccncc1Nc1ccc(I)cc1F [PIMASERTIB] , its Kd was > 30 µM (inactive)

The molecule Cc1cc(C(=O)Nc2cc(Oc3ccc4nc(NC(=O)C5CC5)cn4n3)ccc2C)n(C)n1 [TAK-593] showed Kd equal to > 30 µM (inactive)

Entry S=C(NCc1ccc2c(c1)OCO2)N1CCN(c2ncnc3c2oc2ccccc23)CC1 [AMUVATINIB] — recorded Kd = > 30 µM (inactive)

Form field Kd, entry Cn1c(=O)n(-c2ccc(C(C)(C)C#N)cc2)c2c3cc(-c4cnc5ccccc5c4)ccc3ncc21 [DACTOLISIB] : > 30 µM (inactive)

* * *

# targetOrSystem: Cyclin-G-associated kinase (Homo sapiens, UniProt O14976); further: in the data inactive means no Kd found up to 30 µM
# Sequence (O14976 whole entry): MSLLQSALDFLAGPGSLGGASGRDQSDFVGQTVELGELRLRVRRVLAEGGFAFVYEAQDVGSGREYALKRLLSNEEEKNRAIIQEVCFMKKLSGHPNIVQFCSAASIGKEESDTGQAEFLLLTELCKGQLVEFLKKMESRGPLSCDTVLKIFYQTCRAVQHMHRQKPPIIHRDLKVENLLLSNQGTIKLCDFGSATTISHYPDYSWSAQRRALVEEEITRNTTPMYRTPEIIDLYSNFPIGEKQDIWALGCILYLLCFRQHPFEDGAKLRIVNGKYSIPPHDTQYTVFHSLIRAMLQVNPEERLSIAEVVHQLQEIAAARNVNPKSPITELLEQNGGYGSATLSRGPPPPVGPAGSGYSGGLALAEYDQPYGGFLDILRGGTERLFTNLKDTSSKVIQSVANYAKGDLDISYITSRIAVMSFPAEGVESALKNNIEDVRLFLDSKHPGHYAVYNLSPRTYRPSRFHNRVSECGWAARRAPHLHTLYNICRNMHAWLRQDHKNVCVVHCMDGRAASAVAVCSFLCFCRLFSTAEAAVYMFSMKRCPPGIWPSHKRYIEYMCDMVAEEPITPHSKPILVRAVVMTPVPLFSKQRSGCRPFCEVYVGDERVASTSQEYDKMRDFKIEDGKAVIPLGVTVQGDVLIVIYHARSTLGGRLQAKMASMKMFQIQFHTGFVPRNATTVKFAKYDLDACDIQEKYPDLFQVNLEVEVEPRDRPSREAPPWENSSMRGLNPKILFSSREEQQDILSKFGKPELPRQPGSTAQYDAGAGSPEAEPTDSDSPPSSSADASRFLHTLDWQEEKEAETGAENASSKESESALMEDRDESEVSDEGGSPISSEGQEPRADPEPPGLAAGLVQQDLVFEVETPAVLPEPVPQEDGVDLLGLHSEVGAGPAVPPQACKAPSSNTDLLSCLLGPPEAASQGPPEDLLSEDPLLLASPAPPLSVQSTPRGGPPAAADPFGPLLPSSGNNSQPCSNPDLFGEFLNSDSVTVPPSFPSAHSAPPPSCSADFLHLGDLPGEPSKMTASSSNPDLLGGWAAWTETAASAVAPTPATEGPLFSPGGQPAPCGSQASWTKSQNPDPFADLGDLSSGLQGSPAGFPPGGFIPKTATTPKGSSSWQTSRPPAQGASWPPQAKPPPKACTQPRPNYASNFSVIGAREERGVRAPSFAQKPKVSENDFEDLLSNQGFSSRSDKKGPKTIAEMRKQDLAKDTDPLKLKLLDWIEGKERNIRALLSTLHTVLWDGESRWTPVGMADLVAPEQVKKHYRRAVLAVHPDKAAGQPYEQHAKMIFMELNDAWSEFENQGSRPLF
Active and inactive are the calls of the source.
Choose one outcome from this list and give only that: active, inactive

Below are worked cases with known answers.
{"compound": "COc1cc(F)c(F)c(Nc2ccc(I)cc2F)c1NS(=O)(=O)C1(C[C@H](O)CO)CC1", "labelValue": "inactive"}
{"compound": "CNC(=O)c1ccc(Nc2ncc(C(F)(F)F)c(NCc3nccnc3N(C)S(C)(=O)=O)n2)cc1", "labelValue": "inactive"}
{"compound": "COc1cc2ncnc(Nc3ccc(F)c(Cl)c3)c2cc1NC(=O)/C=C/CN1CCCCC1 [DACOMITINIB ANHYDROUS]", "labelValue": "active"}

Alright, here's another compound for you.
Data request: Hi, sorry to bother you, what did the test record for CC(C)CC(=O)Nc1[nH]nc2c1CN(C(=O)C1CCN(C)CC1)C2(C)C ?
Data returned: inactive

The reported measurements were obtained from ChEMBL document CHEMBL3991601.
